Ki for Rho-associated protein kinase 1 (Homo sapiens) - collated from the literature.
Binary label based on Ki with cut-off 7 nM: below gives MET, not below gives NOT MET.

In [3]: df
Out[3]:
                                 smiles_data  classification
 0   CC(=O)Nc1ccc2c(c1)nc(-c1nonc1N)n2C1CCC1         NOT MET
 1  CN1CCN(CCCOc2cccc(CC(=O)Nc3nc(-c4c[nH]c5ncc(F)cc45)cs3)c2)CC1             MET
 2  CS(=O)(=O)Nc1cccc(CC(=O)Nc2nccc(-c3c[nH]c4ncccc34)n2)c1         NOT MET
 3     COc1ccc(-n2c(-c3nonc3N)nc3ccccc32)cc1         NOT MET
 4        COc1ccc2c(c1)nc(-c1nonc1N)n2C1CCC1         NOT MET
 5  CN1CCN(CCOc2cccc(CC(=O)Nc3nc(-c4c[nH]c5ncc(F)cc45)cs3)c2)CC1             MET
 6  CS(=O)(=O)Nc1cccc(CC(=O)Nc2ccc(-c3c[nH]c4ncccc34)s2)c1         NOT MET
 7  Cc1ccc2c(c1)N(Cc1cc(F)cc3c1OCOC3)C(=O)/C2=N\O         NOT MET
 8         Cc1ccc2c(c1)nc(-c1nonc1N)n2C1CCC1         NOT MET
 9  Cc1nc(NC(=O)NCCOCC2CC2)sc1C#Cc1ccc2cncn2c1         NOT MET
10  CS(=O)(=O)Nc1cccc(CC(=O)Nc2nc(-c3c[nH]c4ncc(Cl)cc34)cs2)c1         NOT MET
11              Nc1nonc1-c1nc2ccccc2n1C1CCC1         NOT MET
12  O=C(Cc1cccc(OCCCC2CCNCC2)c1)Nc1nc(-c2c[nH]c3ncc(F)cc23)cs1             MET
13  CS(=O)(=O)Nc1cccc(CC(=O)Nc2nc(-c3c[nH]c4nccc(F)c34)cs2)c1             MET
14  COc1cc(C#Cc2sc(NC(=O)NCCOCC3CC3)nc2C)cnc1OC         NOT MET
15  Cc1sc(NC(=O)Cc2cccc(NS(C)(=O)=O)c2)nc1-c1c[nH]c2ncccc12         NOT MET
16               Cc1cn(CC(C)C)c(-c2nonc2N)n1         NOT MET
17     COc1cccc(-n2c(-c3nonc3N)nc3ccccc32)c1         NOT MET
18          Nc1nonc1-c1nc2cc(CO)ccc2n1C1CCC1         NOT MET
